Property: G2/M, % of Total Cellular Populations; scope: individual compounds
Tested on: CCRF-CEM lymphoblasts
Experiment: Cell cycle and apoptosis analysis (propidium iodide flow cytometry)
Format: cell-based, human
Details: 24 h, 1 × IC50 (first value of cell)
readoutName: G2/M, % of Total Cellular Populations (%)

INSERT INTO assay_data (querysmiles, studytarget, readoutname, experimentalresult) VALUES
  ('O=C(OCCS(=O)(=O)c1cc[n+]([O-])c2cc(Cl)ccc12)c1ccc(C(F)(F)F)cc1', 'CCRF-CEM lymphoblasts', 'G2/M, % of Total Cellular Populations', 18.46),
  ('COc1ccc(OC)c(C(=O)OCCS(=O)(=O)c2cc[n+]([O-])c3cc(Cl)ccc23)c1', 'CCRF-CEM lymphoblasts', 'G2/M, % of Total Cellular Populations', 20.04),
  ('Cc1ccc([N+](=O)[O-])c(C(=O)OCCS(=O)(=O)c2cc[n+]([O-])c3cc(Cl)ccc23)c1', 'CCRF-CEM lymphoblasts', 'G2/M, % of Total Cellular Populations', 21.99);

----------
System: CCRF-CEM (childhood T cell acute lymphoblastic leukemia)
Assay: Cytotoxic MTS assay, CCRF-CEM
Type: cell-based, human
Property: IC50; scope: individual molecules
readoutName: IC50 (nM)

INSERT INTO measurements (molecule, experimentalresult) VALUES
  ('COc1ccc(OC)c(C(=O)OCCS(=O)(=O)c2cc[n+]([O-])c3cc(Cl)ccc23)c1 [Compound 65]', 550),
  ('COc1cc(OC)c(C(=O)OCCS(=O)(=O)c2cc[n+]([O-])c3cc(Cl)ccc23)cc1OC [Compound 66]', 1110),
  ('COc1ccc(C(=O)OCCCS(=O)(=O)c2cc[n+]([O-])c3cc(Cl)ccc23)cc1 [Compound 73]', 2180);

----------
readoutName: melting point

INSERT INTO measurements (molecule, readoutname, experimentalresult) VALUES
  ('COc1ccc(OC)c(C(=O)OCCSc2ccnc3cc(Cl)ccc23)c1 [Compound 8]', 'melting point', '98 to 100 °C'),
  ('Cc1ccc([N+](=O)[O-])c(C(=O)OCCCSc2ccnc3cc(Cl)ccc23)c1 [Compound 36]', 'melting point', '91 to 92 °C'),
  ('Cc1ccc([N+](=O)[O-])c(C(=O)OCCSc2ccnc3cc(Cl)ccc23)c1 [Compound 18]', 'melting point', '93 to 95 °C'),
  ('O=C(OCC[S+]([O-])c1ccnc2cc(Cl)ccc12)c1ccc(C(F)(F)F)cc1 (stereo not drawn) [Compound 51]', 'melting point', '148 to 150 °C'),
  ('COc1ccc(C(=O)OCCCSc2ccnc3cc(Cl)ccc23)c(OC)c1OC [Compound 28]', 'melting point', '84 °C'),
  ('COc1ccc(C(=O)OCCCSc2ccnc3cc(Cl)ccc23)cc1[N+](=O)[O-] [Compound 35]', 'melting point', '138 to 140 °C'),
  ('COc1cc(OC)cc(C(=O)OCCSc2ccnc3cc(Cl)ccc23)c1 [Compound 11]', 'melting point', '100 to 102 °C'),
  ('O=C(OCCCSc1ccnc2cc(Cl)ccc12)c1ccc(Cl)cc1Cl [Compound 34]', 'melting point', '88 to 89 °C'),
  ('COc1ccc(C(=O)OCCSc2ccnc3cc(Cl)ccc23)c(OC)c1 [Compound 7]', 'melting point', '107 to 108 °C');

----------
Test system: A549 (lung adenocarcinoma)
Assay: Cytotoxic MTS assay, A549
Assay type: cell-based, human
pIC50: −log10 of the molar value.
Property: pIC50; scope: individual compounds
readoutName: pIC50

INSERT INTO assay_data (compound, experimentalresult) VALUES
  ('COc1cc(C(=O)OCCCS(=O)(=O)c2cc[n+]([O-])c3cc(Cl)ccc23)cc(OC)c1OC [Compound 77]', 5.04),
  ('Cc1cc(C)cc(C(=O)OCCCS(=O)(=O)c2cc[n+]([O-])c3cc(Cl)ccc23)c1 [Compound 81]', 5.27),
  ('COc1cc(OC)c(C(=O)OCCCS(=O)(=O)c2cc[n+]([O-])c3cc(Cl)ccc23)cc1OC [Compound 76]', 4.94),
  ('COc1ccc(OC)c(C(=O)OCCCS(=O)(=O)c2cc[n+]([O-])c3cc(Cl)ccc23)c1 [Compound 75]', 5.14),
  ('COc1ccccc1C(=O)OCCCS(=O)(=O)c1cc[n+]([O-])c2cc(Cl)ccc12 [Compound 78]', 5.11),
  ('O=C(OCCS(=O)(=O)c1cc[n+]([O-])c2cc(Cl)ccc12)c1ccc(C(F)(F)F)cc1 [Compound 72]', 4.55),
  ('COc1ccc(C(=O)OCCS(=O)(=O)c2cc[n+]([O-])c3cc(Cl)ccc23)cc1 [Compound 63]', 4.54),
  ('COc1ccccc1C(=O)OCCS(=O)(=O)c1cc[n+]([O-])c2cc(Cl)ccc12 [Compound 68]', 4.57),
  ('O=C(OCCCS(=O)(=O)c1cc[n+]([O-])c2cc(Cl)ccc12)c1ccc(C(F)(F)F)cc1 [Compound 82]', 5.18),
  ('COc1ccc(C(=O)OCCCS(=O)(=O)c2cc[n+]([O-])c3cc(Cl)ccc23)cc1 [Compound 73]', 5.26),
  ('COc1ccc(C(=O)OCCS(=O)(=O)c2cc[n+]([O-])c3cc(Cl)ccc23)cc1[N+](=O)[O-] [Compound 69]', 4.55),
  ('COc1cc(OC)c(C(=O)OCCS(=O)(=O)c2cc[n+]([O-])c3cc(Cl)ccc23)cc1OC [Compound 66]', 4.55),
  ('COc1ccc(C(=O)OCCCS(=O)(=O)c2cc[n+]([O-])c3cc(Cl)ccc23)cc1[N+](=O)[O-] [Compound 79]', 5.24),
  ('Cc1ccc([N+](=O)[O-])c(C(=O)OCCS(=O)(=O)c2cc[n+]([O-])c3cc(Cl)ccc23)c1 [Compound 70]', 4.55),
  ('COc1cccc(C(=O)OCCS(=O)(=O)c2cc[n+]([O-])c3cc(Cl)ccc23)c1OC [Compound 64]', 4.55),
  ('COc1cccc(C(=O)OCCCS(=O)(=O)c2cc[n+]([O-])c3cc(Cl)ccc23)c1OC [Compound 74]', 5.27),
  ('Cc1ccc([N+](=O)[O-])c(C(=O)OCCCS(=O)(=O)c2cc[n+]([O-])c3cc(Cl)ccc23)c1 [Compound 80]', 5.19),
  ('COc1ccc(OC)c(C(=O)OCCS(=O)(=O)c2cc[n+]([O-])c3cc(Cl)ccc23)c1 [Compound 65]', 4.55);

----------
System: BJLD (human lung fibroblast doxorubicin-resistant)
Experiment: Cytotoxic MTS assay, BJLD
Assay type: cell-based
readoutName: IC50 (µM)

INSERT INTO results (querysmiles, experimentalresult) VALUES
  ('COc1cc(OC)c(C(=O)OCCS(=O)(=O)c2cc[n+]([O-])c3cc(Cl)ccc23)cc1OC', 11),
  ('COc1cccc(C(=O)OCCCS(=O)(=O)c2cc[n+]([O-])c3cc(Cl)ccc23)c1OC', 10.5),
  ('COc1cccc(C(=O)OCCS(=O)(=O)c2cc[n+]([O-])c3cc(Cl)ccc23)c1OC', 8.95);

----------
System: K562-TAX (chronic myeloid leukemia paclitaxel-resistant subline)
Assay: Cytotoxic MTS assay, K562-TAX
Assay type: cell-based, human
pIC50: −log10 of the molar value.
readoutName: pIC50

INSERT INTO results (querysmiles, experimentalresult) VALUES
  ('COc1ccc(OC)c(C(=O)OCCS(=O)(=O)c2cc[n+]([O-])c3cc(Cl)ccc23)c1', 5.18),
  ('COc1ccccc1C(=O)OCCS(=O)(=O)c1cc[n+]([O-])c2cc(Cl)ccc12', 5.33),
  ('Cc1ccc([N+](=O)[O-])c(C(=O)OCCCS(=O)(=O)c2cc[n+]([O-])c3cc(Cl)ccc23)c1', 5.22),
  ('COc1ccc(OC)c(C(=O)OCCCS(=O)(=O)c2cc[n+]([O-])c3cc(Cl)ccc23)c1', 5.02),
  ('Cc1ccc([N+](=O)[O-])c(C(=O)OCCS(=O)(=O)c2cc[n+]([O-])c3cc(Cl)ccc23)c1', 5.16),
  ('COc1cc(OC)c(C(=O)OCCCS(=O)(=O)c2cc[n+]([O-])c3cc(Cl)ccc23)cc1OC', 4.70),
  ('COc1ccccc1C(=O)OCCCS(=O)(=O)c1cc[n+]([O-])c2cc(Cl)ccc12', 5.06),
  ('COc1cc(OC)c(C(=O)OCCS(=O)(=O)c2cc[n+]([O-])c3cc(Cl)ccc23)cc1OC', 5.20),
  ('COc1ccc(C(=O)OCCCS(=O)(=O)c2cc[n+]([O-])c3cc(Cl)ccc23)cc1[N+](=O)[O-]', 5.43),
  ('COc1ccc(C(=O)OCCCS(=O)(=O)c2cc[n+]([O-])c3cc(Cl)ccc23)cc1', 5.34),
  ('Cc1cc(C)cc(C(=O)OCCCS(=O)(=O)c2cc[n+]([O-])c3cc(Cl)ccc23)c1', 5.20),
  ('O=C(OCCCS(=O)(=O)c1cc[n+]([O-])c2cc(Cl)ccc12)c1ccc(C(F)(F)F)cc1', 5.40),
  ('COc1ccc(C(=O)OCCS(=O)(=O)c2cc[n+]([O-])c3cc(Cl)ccc23)cc1', 5.33),
  ('COc1cc(C(=O)OCCCS(=O)(=O)c2cc[n+]([O-])c3cc(Cl)ccc23)cc(OC)c1OC', 4.96),
  ('COc1cccc(C(=O)OCCS(=O)(=O)c2cc[n+]([O-])c3cc(Cl)ccc23)c1OC', 5.25);
